Target: Peroxisome proliferator-activated receptor gamma (Homo sapiens)
Sequence (P37231 whole entry): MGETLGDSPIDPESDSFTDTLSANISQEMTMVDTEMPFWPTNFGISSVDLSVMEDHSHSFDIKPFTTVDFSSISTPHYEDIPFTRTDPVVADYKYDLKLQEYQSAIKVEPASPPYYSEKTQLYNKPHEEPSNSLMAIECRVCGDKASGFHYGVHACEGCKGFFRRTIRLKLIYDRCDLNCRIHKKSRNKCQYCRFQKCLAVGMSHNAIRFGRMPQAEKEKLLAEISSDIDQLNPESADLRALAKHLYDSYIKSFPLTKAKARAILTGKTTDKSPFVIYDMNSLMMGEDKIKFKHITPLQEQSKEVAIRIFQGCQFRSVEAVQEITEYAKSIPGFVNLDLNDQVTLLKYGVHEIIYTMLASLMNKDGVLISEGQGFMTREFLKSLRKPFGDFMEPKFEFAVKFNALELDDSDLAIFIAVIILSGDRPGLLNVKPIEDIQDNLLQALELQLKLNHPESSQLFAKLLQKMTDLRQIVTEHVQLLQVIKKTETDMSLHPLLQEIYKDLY
Assay: competitive ligand displacement at PPARg – biochemical, TR-FRET, LanthaScreen, PPARg partial agonist project, dose response (AID 504446)
Quick reference for IC50 among some molecules
Quantity: IC50 (µM)

# Molecule, Value units, Data value
rows = [
    ("Cc1ccc2nc(N3C(=O)C(=O)C(C(=O)c4ccc(C)o4)C3c3ccco3)sc2c1 (centres undefined)", "µM", 2.6),
    ("CCOc1ccc2nc(N3C(=O)C(=O)C(C(=O)c4ccco4)C3c3ccco3)sc2c1 (centres undefined)", "µM", 8.2),
    ("COc1ccc2nc(N3C(=O)C(=O)C(C(=O)c4ccco4)C3c3ccc(C)o3)sc2c1 (centres undefined)", "µM", 1.2),
    ("Cc1ccc2nc(N3C(=O)C(=O)C(C(=O)c4ccco4)C3c3ccc(C)o3)sc2c1 (centres undefined)", "µM", 14),
]
